assayed_system: Hordeum HPPD (SEQ ID: 2) (Hordeum vulgare, UniProt O48604, A164G/R146V/R147D/R148G)
Construct: His (N)
Sequence (O48604 whole entry R146V/R147D/R148G/A164G): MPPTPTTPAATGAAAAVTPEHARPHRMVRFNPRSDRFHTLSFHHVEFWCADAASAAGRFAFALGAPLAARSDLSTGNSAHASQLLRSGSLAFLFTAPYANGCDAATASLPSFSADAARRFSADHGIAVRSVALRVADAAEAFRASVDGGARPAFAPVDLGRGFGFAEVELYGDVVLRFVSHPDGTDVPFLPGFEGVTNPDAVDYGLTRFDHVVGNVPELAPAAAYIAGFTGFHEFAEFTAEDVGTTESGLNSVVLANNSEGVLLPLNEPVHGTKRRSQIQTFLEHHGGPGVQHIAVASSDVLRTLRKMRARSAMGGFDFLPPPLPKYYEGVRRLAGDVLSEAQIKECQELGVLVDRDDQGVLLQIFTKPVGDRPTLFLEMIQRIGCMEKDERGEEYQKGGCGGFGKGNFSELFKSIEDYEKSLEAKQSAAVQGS
experiment: HPPD activity assay, Hordeum wild-type HPPD
property_label: pKi
Recall that pKi is obtained by taking minus log10 of the concentration measured in molar.

CC1(C)c2cccnc2C(O)=C(c2ccc(Cl)nc2Cl)S1(=O)=O: 8.31

Here is the next item to consider.
Value lookup for pKi; key = CC1=NOC(c2c(Cl)ccc(C3=C(O)c4ncccc4C(C)(C)S3(=O)=O)c2Cl)C1 (centres unmarked)
8.18

----------
assayed_system: Hordeum HPPD variant V212L (Hordeum vulgare, UniProt O48604, A164G/R146V/R147D/R148G/V212L)
Construct: His (N); made in house; host or cells: E. coli BL21 (DE3)
Sequence (O48604 whole entry R146V/R147D/R148G/A164G/V212L): as the sequence (O48604 whole entry R146V/R147D/R148G/A164G) above, with V212L counted along it
experiment: HPPD activity assay, Hordeum HPPD mutant V212L
Format: biochemical
protocol_conditions: normalized on Hordeum wild-type HPPD
// values below are reported Normalized tolerance index TI
Lab note: jot down the number only; don't add units.

Below, each entry is followed by its recorded Normalized tolerance index TI result.
CC1(C)c2cccnc2C(O)=C(c2ccc(Br)cc2C(F)(F)F)S1(=O)=O: 1.1
CC1(C)c2cccnc2C(O)=C(c2ccc(Cl)nc2Cl)S1(=O)=O: 1.1
COCCOCc1c(Cl)ccc(C2=C(O)c3ncccc3C(C)(C)S2(=O)=O)c1Cl: 0.7

Return reported Normalized tolerance index TI; argument: CC1=NOC(c2c(Cl)ccc(C3=C(O)c4ncccc4C(C)(C)S3(=O)=O)c2Cl)C1 (stereo not shown)
0.8

----------
As an illustration, consider measured Ki for molecules on Arabidopsis HPPD (SEQ ID: 53) (Arabidopsis thaliana, UniProt P93836).
Sequence (P93836 whole entry): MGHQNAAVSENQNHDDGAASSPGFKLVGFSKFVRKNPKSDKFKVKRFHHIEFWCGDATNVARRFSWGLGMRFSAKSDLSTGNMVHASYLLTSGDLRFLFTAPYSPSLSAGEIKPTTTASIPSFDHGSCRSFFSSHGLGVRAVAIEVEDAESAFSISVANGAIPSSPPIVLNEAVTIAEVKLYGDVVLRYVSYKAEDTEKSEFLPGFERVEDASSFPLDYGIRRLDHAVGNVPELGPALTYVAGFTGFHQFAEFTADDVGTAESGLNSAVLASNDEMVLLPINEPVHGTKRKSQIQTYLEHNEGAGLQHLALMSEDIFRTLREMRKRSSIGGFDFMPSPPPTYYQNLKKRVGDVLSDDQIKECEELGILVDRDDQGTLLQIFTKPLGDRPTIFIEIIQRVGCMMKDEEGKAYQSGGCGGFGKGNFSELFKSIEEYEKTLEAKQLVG
Write the number in nM without appending the unit.

CC1=NOC(c2c(Cl)ccc(C3=C(O)c4ncccc4C(C)(C)S3(=O)=O)c2Cl)C1 (centres unmarked) [Inhibitor 1]: 4.1

So what Ki did CC1(C)c2cccnc2C(O)=C(c2ccc(Cl)nc2Cl)S1(=O)=O [Inhibitor 2] get with Arabidopsis HPPD (SEQ ID: 53) (Arabidopsis thaliana, UniProt P93836)?
4.2

From: patent US20140357487A1
